# Study system: Aldo-keto reductase family 1 member B1 (Homo sapiens)
# Measurement description: Inhibition of recombinant human ALR2 assessed as reduction in NADPH oxidation measured for 5 mins in presence of D,L-glyceraldehyde by spectrophotometric method
Measurement name: IC50 (nM)

Structure string	Endpoint result
CC1=N/C(=C\c2cccc(O)c2)C(=O)N1CC(=O)O	3200
CC1=N/C(=C\c2ccc3ccccc3c2)C(=O)N1CC(=O)O	100
CC1=N/C(=C\c2cc(C)c(O)c(C)c2)C(=O)N1CC(=O)O	130
CC1=N/C(=C\c2ccc(OCC(=O)O)cc2)C(=O)N1CC(=O)O	310
CCOC(=O)COc1ccc(/C=C2\N=C(C)N(CC(=O)OCC)C2=O)cc1	109000
CC1=N/C(=C\c2ccc(Br)cc2)C(=O)N1CC(=O)O	240
CC1=N/C(=C\c2ccc(O)cc2)C(=O)N1CCC(=O)O	10700
COc1ccc(/C=C2\N=C(C)N(CC(=O)O)C2=O)cc1	510

1 = CC1=N/C(=C\c2cccc3ccccc23)C(=O)N1CC(=O)O
2 = CCOC(=O)CN1C(=O)/C(=C/c2ccccc2)N=C1C
// compare: 1 vs 2 , metric IC50, want the smaller Lab log: write the label of the selected item as the result. 1
(1: 540 nM, 2: 112000 nM)
